# stated conditions: buffer; pH 7.4; 200.0 µM
Recorded solubility kinetic determines the label; the label ranges are low (below 0.006 mg/mL), mid (0.006 mg/mL to below 0.04 mg/mL), high (0.04 mg/mL or more)

## Task Into which bin does this compound go? CCN(C(=O)c1ccc(Cl)c([N+](=O)[O-])c1)c1ccccc1
## Result mid

## Task Which solubility kinetic band matches O=C(CN1CCCC1)Nc1ccc(OCc2ccccc2)cc1 ?
## Result high

## Task Which solubility kinetic band matches COc1ccccc1CN(C)CC(=O)Nc1cccc(S(=O)(=O)N2CCCC2)c1.O=C(O)C(=O)O ?
## Result high

## Task Class label required: CCOc1ncccc1C(=O)Nc1ccc2nc(C)sc2c1
## Result low

## Task Field: class (solubility kinetic) — entry: CCOC(=O)C1(Cc2ccccc2C)CCCN(C(=O)COC)C1 (stereo not given)
## Result mid

## Task Entry COc1ccc(Nc2nc(N)c([N+](=O)[O-])c(NC3CCCCC3)n2)cc1 belongs to which category?
## Result low

## Task Looking at O=C(c1cccc(S(=O)(=O)N2CCN(c3ccc(F)cc3)CC2)c1)N1CCCC1 , which class would you pick?
## Result high

## Task Category of Nc1c2c(nc3sc4c(c13)CCCC4)-c1ccccc1CC2 :
## Result low

## Task Exam item: assign CNC(=O)COc1ccc2oc3c(c2c1)CCCC3 to the correct category.
## Result mid

## Task Which of the defined bands does the recorded solubility kinetic of Cc1ccccc1NC(=O)CC1SC(=Nc2ccc(O)cc2)NC1=O (stereo not given) sit within?
## Result low

## Task Band for the recorded solubility kinetic of Cc1ccc(NC(=O)COC(=O)CNC(=O)C2CCCCC2)cc1S(=O)(=O)N(C)C ?
## Result high

## Task Category of Cc1[nH]c2ccc(C(=O)NC3CCC(C)CC3)cc2c1C (stereo not given) , please.
## Result low

## Task Sort into band: CC(=O)N1N=C(c2ccccc2)OC1c1cccnc1 (stereo not given)
## Result high

## Task Which class is correct for the following compound? Cn1nc(-c2ccc(Cl)cc2)cc1NC(=O)CC(C)(C)CC(=O)O
## Result high

## Task Bin? CCOC(=O)CNc1ccc(OC(F)(F)F)cc1
## Result mid

## Task Pick a category. Item: Cc1ccc(CNc2ccc(N3CCOCC3)cc2)cc1
## Result high

## Task Into which bin does this compound go? COc1ccc(OC)c(NC(=O)CC2Oc3ccccc3NC2=O)c1 (stereo not given)
## Result mid

## Task For this compound, which bin applies? COc1ccc(N2Cc3ccccc3C2=O)cc1
## Result mid

## Task Category lookup for the compound COc1c(C=O)cc2c3c1CCCN3CCC2
## Result mid

## Task Determine which band this compound sits in: COc1ccc(NC(=O)Cc2ccsc2)c(OC)c1
## Result high

---

# stated conditions: buffer; pH 7.4; 200.0 µM
attribute measured: solubility kinetic (µg/mL)
All answers are understood in µg/mL, so give the number only.

## Task Could you share which solubility kinetic value was measured for Cc1cc(C(=O)N2CCN(C(=O)c3ccco3)CC2)ccc1[N+](=O)[O-] ?
## Result 47.5

## Task For Cc1ccc(C(O)CCc2ccc(N)cc2)cc1 (stereo unspecified) , what is its reported solubility kinetic?
## Result 31.9

## Task If you can, please state the reported solubility kinetic value of O=C(Cc1ccccc1[N+](=O)[O-])Nc1ccc2c(c1)OCO2 .
## Result 14.6

## Task Any idea what solubility kinetic was measured for O=CN1CCN(CC(O)Cn2c3ccccc3c3ccccc32)CC1 (stereo unspecified) ?
## Result 43.3

## Task Consider the compound Cc1c(C(=O)O/N=C(\N)c2ccccn2)cccc1[N+](=O)[O-] and give its measured solubility kinetic.
## Result 5.2

---

# stated conditions: buffer; pH 7.4; 200.0 µM
attribute measured: solubility kinetic (µg/mL)
The reply should be a number in µg/mL, with the unit left off.

## Task // lookup solubility kinetic for O=C(NC1CCN(S(=O)(=O)c2ccc(F)cc2)CC1)c1ccco1
## Result 17.5

## Task Return reported solubility kinetic; argument: Cc1ccc(C(=O)Nc2nc(-c3ccccn3)cs2)o1
## Result 37.1

## Task // solubility kinetic lookup, key: N#Cc1c(-c2ccncc2)c2c([nH]c1=O)-c1ccccc1OC2
## Result 14.9

---

Give measured solubility kinetic for each item. Keep answers brief.
# stated conditions: buffer; pH 7.4; 200.0 µM

## Task Please give the measured solubility kinetic for this molecule: CC1CCCC(NC(=O)CNC(=O)c2cccs2)C1C (configuration not stated)
## Result > 44.2 µg/mL

## Task Dear colleague, I am looking for the recorded solubility kinetic of the following molecule: N#C/C(=C/c1ccco1)C(N)=S
## Result > 26.7 µg/mL

## Task Suppose we examine the molecule O=S(=O)([O-])CCC[n+]1ccc(Oc2ccccc2)cc1 ; what solubility kinetic value has been reported?
## Result 21 µg/mL

## Task Need solubility kinetic of CCC(=O)N(Cc1cc(=O)[nH]c2ccccc12)c1ccccc1OC , thanks.
## Result > 50.5 µg/mL

## Task Using the record for COc1ccccc1NC(=O)Nc1ccncc1 , report its solubility kinetic.
## Result 16.5 µg/mL

## Task solubility kinetic for Cn1c2ccccc2c2nnc(SCCN3CCOCC3)nc21 ?
## Result > 49.4 µg/mL

## Task Field request: solubility kinetic | item: O=C(Nc1ccc2c(c1)CCC2)c1ccc(Br)s1
## Result < 0.7 µg/mL

## Task Entry under review: CN(C(=O)c1ccccc1)C1c2c(ccc3ccccc23)OCC1CO (configuration not stated) . Reported solubility kinetic?
## Result < 0.7 µg/mL

## Task Any idea what solubility kinetic was measured for CCOc1ncccc1C(=O)Nc1nnc(C2CC2)s1 ?
## Result > 43.6 µg/mL

## Task Quick one: solubility kinetic for C=CCn1c(O)c(C(CC)=Nc2ccc(C(=O)O)cc2)c(=O)[nH]c1=O ?
## Result > 51.5 µg/mL

## Task Query: solubility kinetic; subject: CCOc1ccccc1N(CC(=O)N1CCCC1)S(C)(=O)=O
## Result > 49 µg/mL

## Task # query: solubility kinetic of entry CCc1noc(C)c1C(=O)Nc1nc(-c2ccccc2)cs1
## Result 5 µg/mL

---

Consider the following molecules; for each one, report its solubility kinetic.
# stated conditions: buffer; pH 7.4; 200.0 µM

## Task # lookup: solubility kinetic of CCCCn1c(N)c(N(CCOC)C(=O)c2ccc3c(c2)C(=O)N(c2ccccc2Cl)C3=O)c(=O)[nH]c1=O
## Result > 81 µg/mL

## Task Query: solubility kinetic; subject: CCOc1ccc2nc(SCC(=O)Nc3nonc3C)[nH]c2c1
## Result 2.2 µg/mL

## Task Form field: reported solubility kinetic of Cc1ccc(S(=O)(=O)N2CCCc3ccccc32)cc1C
## Result 2.3 µg/mL

## Task What measured solubility kinetic goes with O=C1CNC(=S)N1CCc1ccc(O)c(O)c1 ?
## Result 32.3 µg/mL

## Task // returns reported solubility kinetic for input CSC1=NCCN1C(=O)c1ccc(C)cc1
## Result > 35.1 µg/mL

## Task May I ask what solubility kinetic has been recorded for Cc1ccc(C(=O)O/N=C/c2ccc(N(C)C)cc2)cc1 ?
## Result 2.4 µg/mL

## Task May I ask what solubility kinetic has been recorded for O=C(NCc1ccccc1)C1CC(=O)N(C2CCCCC2)C1 (configuration not stated) ?
## Result > 45.1 µg/mL

## Task Please look up its solubility kinetic: COc1ccc([N+](=O)[O-])cc1NC(=O)Cc1noc2ccccc12
## Result 0.3 µg/mL

## Task For Oc1ccc(NCc2ccc(OCc3ccccc3)cc2)cc1 , what is its reported solubility kinetic?
## Result 9.7 µg/mL

## Task What solubility kinetic value was documented for this molecule, O=C(/C=C/c1ccco1)c1cccnc1 ?
## Result 23.8 µg/mL

## Task Dear colleague, I am looking for the recorded solubility kinetic of the following molecule: Cc1cc(OC(C)C(=O)Nc2ccncc2)ccc1Cl (configuration not stated)
## Result > 43.6 µg/mL

## Task Suppose we examine the molecule CS(=O)(=O)N1CCC(C(=O)Nc2cccc(F)c2)CC1 ; what solubility kinetic value has been reported?
## Result > 45.1 µg/mL

---

Please go through the items and note down their log10 solubility kinetic.
# stated conditions: buffer; pH 7.4; 200.0 µM
Please be aware that the numbers have been log10-transformed from solubility kinetic in µg/mL.

## Task Could you tell me which log10 solubility kinetic is on file for O=C(Cc1cccs1)NCc1ccccc1Br ?
## Result 1.39

## Task log10 solubility kinetic for C[C@@H]1NC(=O)/C(=C\c2ccccc2Br)NC1=O ?
## Result 1.12

## Task Quick one: log10 solubility kinetic of Cc1ccc(O)c(NC(=O)c2cc(-c3ccccc3Cl)on2)c1 ?
## Result -0.40

## Task Sample O=C(COC(=O)/C=C/c1cccc(F)c1)NC1CCCC1 — what was its log10 solubility kinetic?
## Result 0.89

## Task # log10 solubility kinetic lookup, item Cc1nc(N)ncc1Sc1ccccc1
## Result 0.72

## Task Quick one: log10 solubility kinetic of Cc1ccccc1NC(=O)/C=C/c1cccs1 ?
## Result 1.29

## Task Could you share which log10 solubility kinetic value was measured for CC(NC(=S)Nc1cccc(C(F)(F)F)c1)C(C)(C)C (stereo not given) ?
## Result 0.66

## Task What measured log10 solubility kinetic goes with O=C(NCCN1CCN(c2ccccc2)CC1)Nc1ccc(Cl)cc1 ?
## Result 0.57

## Task State the recorded log10 solubility kinetic for this entry: Cc1noc(C)c1COc1ccc(C(=O)Nc2ccccn2)cc1
## Result 0.88

## Task GET /values?readout=log10 solubility kinetic&item= CCOc1ccc2[nH]c3c(NCCC(C)C)ncnc3c2c1
## Result -0.22

## Task log10 solubility kinetic for C=CCc1cccc2cc(C(=O)N3CCOCC3)c(=O)oc12 ?
## Result 1.63

## Task Looking for the measured log10 solubility kinetic of Cc1cc(=O)[nH]c2ccc(S(=O)(=O)N3CCOCC3)cc12 , can you help?
## Result 1.20

## Task Fill in the blank: the reported log10 solubility kinetic of CC(=O)NC1c2ccccc2C(=O)N1Cc1ccccc1 (stereo not given) is ____.
## Result 1.60

## Task Give its log10 solubility kinetic value. Item: NC(=O)c1ccc(Nc2ccc3nonc3c2[N+](=O)[O-])cc1
## Result 1.25
